- test.description: gradient 5% acetonitrile 3 min, to 50% in 2 min, to 85% in 15 min, held 3 min, 100 µL/min
- test.settings: column: Zorbax Extend-C18 2.1 x 50 mm; eluents: water / acetonitrile, 0.1% formic acid
measurement.kind: RP-LC retention time (s)
# output: bare number, implied unit s

Query string: Need RP-LC retention time, item CCc1csc(-c2ccc(N3CCN(C(=O)c4nccc5ccccc45)CC3)nc2)n1
Result string: 938

Query string: Need RP-LC retention time, item O=c1c2cc(-c3ccc(Cl)cc3)nn2ccn1Cc1ccc(F)cc1
Result string: 1120

Query string: Need RP-LC retention time, item O=C(Nc1cccnc1)C1CCCN(S(=O)(=O)c2cc(-c3noc(C4CCCC4)n3)cs2)C1 (configuration not stated)
Result string: 825

Query string: Need RP-LC retention time, item COc1cc([C@@H]2c3cc4c(cc3[C@H](O)[C@@H](CO)[C@@H]2C(=O)NCCC2=CCCCC2)OCO4)cc(OC)c1OC
Result string: 781

Query string: Need RP-LC retention time, item CCOc1ccc(/C=C/c2nc(C#N)c(NCCN(C)C)o2)cc1
Result string: 668

Query string: Need RP-LC retention time, item COCCNC(=O)CSc1cc(N2CCN(c3ccccc3OC)CC2)ncn1
Result string: 698

Query string: Need RP-LC retention time, item NC(=O)c1c(NC(=O)C2=COCCO2)sc2c1CCCCC2
Result string: 987

Query string: Need RP-LC retention time, item CCCOc1ccc(C(=O)Nc2nnc(C3CC(=O)N(c4ccccc4)C3)o2)cc1 (configuration not stated)
Result string: 800

Query string: Need RP-LC retention time, item O=C(c1cc(-c2ccccn2)n[nH]1)N1CCN(C(=O)C2CCC2)CC1
Result string: 612

Query string: Need RP-LC retention time, item CC(C)OC(=O)c1cc2ccsc2n1CC(=O)NCc1ccc(F)cc1
Result string: 954

Query string: Need RP-LC retention time, item Cc1nc(S(=O)(=O)N2CCC(C(=O)NCc3ccc(Cl)cc3)CC2)cn1C
Result string: 709

Query string: Need RP-LC retention time, item COC(=O)c1ccc(CN2CC(=O)N3CCCC3C2=O)cc1 (configuration not stated)
Result string: 616

----------
- test.description: gradient 5% acetonitrile 3 min, to 50% in 2 min, to 85% in 15 min, held 3 min, 100 µL/min
- test.settings: column: Zorbax Extend-C18 2.1 x 50 mm; eluents: water / acetonitrile, 0.1% formic acid
// classify: if (RP-LC retention time < 800 s) Condition met else Condition not met

Query string: Does this molecule meet the criterion RP-LC retention time < 800 s? COc1cccc(NC(=O)Cn2cnc(-c3noc(C4CC4)n3)c2)c1
Result string: Condition met

Query string: Does this molecule meet the criterion RP-LC retention time < 800 s? COc1ccc(Cn2c(=O)c3sccc3n(Cc3nc(-c4ccc(Cl)c(F)c4)no3)c2=O)cc1
Result string: Condition not met

Query string: Does this molecule meet the criterion RP-LC retention time < 800 s? O=C(c1cc(S(=O)(=O)N2CCCC(C(=O)N3CCCCCC3)C2)c[nH]1)N1CCCC1 (centres undefined)
Result string: Condition met

Query string: Does this molecule meet the criterion RP-LC retention time < 800 s? Cc1oc2c(c1C(=O)Nc1ccccc1Br)C1=NCCN1C=N2
Result string: Condition met

Query string: Does this molecule meet the criterion RP-LC retention time < 800 s? COc1ccc(N2CCN(c3cc(SCC(=O)Nc4ccc(C#N)cc4)ncn3)CC2)cc1
Result string: Condition not met

Query string: Does this molecule meet the criterion RP-LC retention time < 800 s? Cc1ccc(-c2ccc(=O)n(Cc3noc(C(=O)N4CCC(C)CC4)n3)n2)cc1C
Result string: Condition not met

Query string: Does this molecule meet the criterion RP-LC retention time < 800 s? COc1cccc(N2CC(NC(=O)c3ccccc3C(F)(F)F)CC2=O)c1 (centres undefined)
Result string: Condition met

Query string: Does this molecule meet the criterion RP-LC retention time < 800 s? CCNC(=O)N1CCCC(c2cccc(C(=O)NCC3CCCCC3)c2)C1 (centres undefined)
Result string: Condition not met

----------
For each of the compounds below, state its RP-LC retention time.
- test.description: gradient 5% acetonitrile 3 min, to 50% in 2 min, to 85% in 15 min, held 3 min, 100 µL/min
- test.settings: column: Zorbax Extend-C18 2.1 x 50 mm; eluents: water / acetonitrile, 0.1% formic acid
# output: bare number, implied unit s

Query string: Need RP-LC retention time, item COc1ccc(-c2ccc(N3CCN(c4ccccn4)CC3)nn2)cc1S(=O)(=O)N1CCOCC1
Result string: 572

Query string: Need RP-LC retention time, item Cc1cccc(CNC(=O)C2CCCN(c3ccc(=O)n(-c4ccc(C)c(Cl)c4)n3)C2)c1 (centres undefined)
Result string: 984

Query string: Need RP-LC retention time, item COc1ccc(C2Cn3nnc(-c4nc(-c5ccccc5)no4)c3CO2)cc1 (centres undefined)
Result string: 1100

Query string: Need RP-LC retention time, item O=c1[nH]cc(I)cc1I
Result string: 723

Query string: Need RP-LC retention time, item O=C(NCCN1CCCC1)C1CCCN(c2ncnc3c2nc2n3CCCCC2)C1 (centres undefined)
Result string: 591

Query string: Need RP-LC retention time, item CC(C)c1nnc2n1C(C(=O)NCC(F)F)CCCC2 (centres undefined)
Result string: 580

Query string: Need RP-LC retention time, item CC(C)n1cnnc1CC1CN(C(=O)Nc2cc(F)cc(F)c2)C1
Result string: 667

Query string: Need RP-LC retention time, item CCNc1nc(C)cc(N2CCN(S(=O)(=O)c3ccccc3C(F)(F)F)CC2)n1
Result string: 732

Query string: Need RP-LC retention time, item COc1cc(C(=O)NCC(c2cccs2)N2CCOCC2)c([N+](=O)[O-])cc1OC (centres undefined)
Result string: 565

Query string: Need RP-LC retention time, item COc1ccccc1NC(=O)C12CCC(C)(C(=O)C1)C2(C)C (centres undefined)
Result string: 848

Query string: Need RP-LC retention time, item CC(C)N1CC(c2nc(-c3ccccc3)no2)C2(CCCC2)C1 (centres undefined)
Result string: 737

Query string: Need RP-LC retention time, item Cc1ccc(C)c(N2CCN(c3ccnc(SCC(=O)Nc4cc(F)ccc4F)n3)CC2)c1
Result string: 1120

Query string: Need RP-LC retention time, item CCOc1ccc(-c2ccc(OCCNS(=O)(=O)c3ccccc3Cl)nn2)cc1
Result string: 891

Query string: Need RP-LC retention time, item Cc1oc(C2CCN(S(=O)(=O)c3ccc(Cl)cc3)CC2)nc1C(=O)N(C)C
Result string: 863

Query string: Need RP-LC retention time, item O=C(c1ccc(F)cc1Cl)N1CCC2(CC1)NC(=O)N(CCOc1ccccc1)C2=O
Result string: 764

Query string: Need RP-LC retention time, item CC(C)CC(=O)N1CCCCCCNC(=O)[C@@H]2CCCC[C@@H]21
Result string: 833

Query string: Need RP-LC retention time, item O=C(Nc1ccccc1)N1CCc2[nH]cnc2C1c1ccccn1 (centres undefined)
Result string: 598

Query string: Need RP-LC retention time, item Cc1cc(=O)n(CC(=O)NC2CCCC2)c(N2CCOCC2)n1
Result string: 599

Query string: Need RP-LC retention time, item O=C(CSc1nccn1-c1cccc(Cl)c1)Nc1ccccc1C(F)(F)F
Result string: 591

Query string: Need RP-LC retention time, item O=C(Nc1ccccn1)C1CCN(C(=O)C2Sc3ccccc3NC2=O)CC1 (centres undefined)
Result string: 622

Query string: Need RP-LC retention time, item O=S(=O)(Nc1ccc2c(c1)OCO2)c1ccc2ccccc2c1
Result string: 953

Query string: Need RP-LC retention time, item Cc1cc(=O)n(CC(=O)Nc2cc(F)ccc2F)c(N2CCCCC2)n1
Result string: 708

Query string: Need RP-LC retention time, item Cc1noc(-c2ccc(OC3CN(C(=O)c4cc(F)ccc4F)C3)cc2)n1
Result string: 868

Query string: Need RP-LC retention time, item CC(C)NC(=O)c1ccc2c(c1)nc(CN(C)C(=O)NCc1ccco1)n2C
Result string: 602

----------
For each of the compounds below, state its RP-LC retention time.
- test.description: gradient 5% acetonitrile 3 min, to 50% in 2 min, to 85% in 15 min, held 3 min, 100 µL/min
- test.settings: column: Zorbax Extend-C18 2.1 x 50 mm; eluents: water / acetonitrile, 0.1% formic acid
# output: bare number, implied unit s

Query string: Need RP-LC retention time, item COc1ccc(NC(=O)c2cn3c(n2)CSCC3)c(C)c1
Result string: 674

Query string: Need RP-LC retention time, item Cc1c(C(=O)N(C)C)sc2nc(-c3ccccc3)c(NC(C)(C)C)n12
Result string: 763

Query string: Need RP-LC retention time, item COc1ccc(-c2nc(CN3C(=O)C(O)(c4ccccc4)c4ccccc43)c(C)o2)cc1 (centres undefined)
Result string: 1040

Query string: Need RP-LC retention time, item Cc1nn(C)c(C)c1C(C)NC(=O)C1CCN(c2cnn(Cc3ccccc3)c(=O)c2)CC1 (centres undefined)
Result string: 650
